Where do these numbers come from? They come from patent US10214491B2.

# Tested on: A375 melanoma (WTp53)
# Assay Notes: WST-1 cell viability assay, A375
# Format: cell-based
# Condition Context: Homo sapiens, A-375, 72 h; A375 melanoma (WTp53), three days, WST-1
Measured Endpoint: pIC50
Friendly reminder that pIC50 comes from taking -log10 of the concentration in mol/L.

[
  {
    "Smiles Text": "CCOC(=O)c1cnc2c(C)cc(C)cc2c1NCCCN(C)C",
    "Measured Endpoint": "pIC50",
    "Recorded Number": 5.21
  }
]

# value lookup — system A375 melanoma (WTp53), readout pIC50, item "COc1cccc2c(N)c3c(cnn3C)nc12"
5.37

Recorded pIC50 for "CN(C)CCNC(=O)c1cccn2c(=O)c3cc4ccccc4cc3nc12" with A375 melanoma (WTp53), please?
6.15

I'm curious: which pIC50 was measured for "Cc1cc(C)c2nc3nc(C)cc(C)c3c(N)c2c1" tested on A375 melanoma (WTp53)?
5.34

Item: "CN(C)CCCNc1nn2c(=O)c3ccccc3nc2c2ccccc12" Test system: A375 melanoma (WTp53) Read-out: pIC50 Value: ?
5.52
